From: PubChem BioAssay (NCI)

Tested on: NCI/ADR-RES ovarian
ASSAY_METHOD_TEXT: NCI-60 one-dose screen, 48 h
SETUP_CONDITIONS: 10 µM unless noted
The panel holds about 83,000 compounds, 20% with a hit somewhere; the sample as a whole holds those more often. Activity calls are given as the source filed them. The calls were made as follows: active = growth percent below 10; inactive = the rest.
Possible outcomes: active, inactive

> print(dat)
                                    molecule  experimental.system  class.label
 1  COc1ccc2c(c1)C(=Nc1cc(OC)c(OC)c(OC)c1)C(=O)N2  NCI/ADR-RES ovarian     inactive
 2  COc1ccc(-c2ccc(O)c(C(=O)/C=C/c3cc(OC)c(OC)c(OC)c3)c2)cc1  NCI/ADR-RES ovarian     inactive
 3  CC(C)OP(=O)(OC(C)C)c1ncc(-c2ccc(C(F)(F)F)cc2)c(NC2CCCCCC2)n1  NCI/ADR-RES ovarian       active
 4  CCc1nn2c(-c3ccc(Cl)cc3C)c(-c3cc(OC)c(OC)c(OC)c3)nc2s1  NCI/ADR-RES ovarian     inactive
 5  O=C1Nc2ccc(Cl)cc2[C@@](C#CC2CC2)(C(F)(F)F)O1  NCI/ADR-RES ovarian     inactive
 6  COc1ccc(OC)c2c1CCC1(C2)NC(=O)NC1=O (stereo not given)  NCI/ADR-RES ovarian     inactive
 7  BrC1CC(Br)c2c1c1c(c3c2C(Br)CC3Br)C(Br)CC1Br (stereo not given)  NCI/ADR-RES ovarian     inactive
 8  Clc1ccc(C2c3ccccc3-c3nccn32)c(Cl)c1 (stereo not given)  NCI/ADR-RES ovarian     inactive
 9  O=C1c2cccc3c([N+](=O)[O-])ccc(c23)C(=O)N1CCCCl  NCI/ADR-RES ovarian       active
10  CCOC(=O)/C=C1/SC(=Nc2ccc(C#N)cc2)N(Cc2ccco2)C1=O  NCI/ADR-RES ovarian     inactive

* * *

Tested on: TK-10 renal
ASSAY_METHOD_TEXT: NCI-60 one-dose screen, 48 h (100 = growth as untreated, 0 = no growth, -100 = all killed)
SETUP_CONDITIONS: 10 µM unless noted
Compounds without any hit were thinned out: in the full panel of roughly 83,000, 20% have a hit. Active and inactive are the calls of the source. Rule for the calls: active = growth percent below 10; inactive = the rest.
ENDPOINT_LABEL: growth

> print(dat)
                                    compound    recorded.value
 1  CCOC(=O)c1sc(NC(=O)COc2cccc(/C=C3\CCc4cc(OC)ccc4C3=O)c2)nc1C  89.3% (inactive)
 2  CCCCCCC(CC#N)(CCC)CCCC (configuration not stated)   102% (inactive)
 3    COc1cc(-c2n[nH]nc2-c2ccccn2)cc(OC)c1OC   151% (inactive)
 4  O=C1C(=O)/C(=C/c2ccccc2)CCCCCC/C1=C/c1ccccc1   115% (inactive)
 5             CN(C)c1ccc(-n2nc3ccccc3n2)cc1   143% (inactive)
 6            O=C1NC(=S)S/C1=C\c1cc(Br)ccc1O   107% (inactive)
 7  COc1ccc(C(=O)COc2cccc(/C=C3\CSc4ccc(Cl)cc4C3=O)c2)cc1   118% (inactive)
 8  Cc1cc2ccccn2c1C(=O)c1ccc(C(=O)c2ccccc2)cc1  98.7% (inactive)
 9  CC1CN(CC(O)c2ccc(Br)cc2)CCO1 (configuration not stated)   110% (inactive)
10          Cc1cnc2nc(-c3ccc(N(C)C)cc3)cn2c1  97.6% (inactive)
11  O=C(CC1Sc2ccccc2NC1=O)NNc1cccc(Cl)c1Cl (configuration not stated)  89.9% (inactive)
12  C1CCC(C(CC2CCCCN2)C2CCCCC2)CC1 (configuration not stated)  21.2% (inactive)
